pIC50: −log10 of the molar value.
UniProt:P00742 pIC50 data
Sequence (P00742 41-179 limits assumed): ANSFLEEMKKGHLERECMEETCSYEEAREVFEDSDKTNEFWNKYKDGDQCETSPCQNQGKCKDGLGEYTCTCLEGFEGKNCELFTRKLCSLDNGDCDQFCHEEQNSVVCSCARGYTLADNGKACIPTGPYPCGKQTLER
Sequence (P00742 235-488 limits assumed): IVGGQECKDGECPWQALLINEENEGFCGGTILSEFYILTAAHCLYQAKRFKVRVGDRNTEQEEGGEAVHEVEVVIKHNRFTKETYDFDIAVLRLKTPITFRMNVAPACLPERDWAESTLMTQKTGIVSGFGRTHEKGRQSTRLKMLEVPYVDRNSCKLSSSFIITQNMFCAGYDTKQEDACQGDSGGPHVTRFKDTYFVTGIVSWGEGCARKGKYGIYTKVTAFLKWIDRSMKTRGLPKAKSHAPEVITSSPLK

# query: pIC50 of entry N=C(N)NCCCC(NC(=O)OCc1ccccc1)P(=O)(Oc1ccccc1)Oc1ccccc1 (stereo not given) < 5.00

# query: pIC50 of entry "N=C(N)Nc1ccc(CP(=O)(Oc2ccccc2)Oc2ccccc2)cc1" < 5.00

# query: pIC50 of entry N=C(N)Nc1ccc(C(NC(=O)OCc2ccccc2)P(=O)(Oc2ccccc2)Oc2ccccc2)cc1 (stereo not given) 5.44

# query: pIC50 of entry Nc1ccc(C(NC(=O)OCc2ccccc2)P(=O)(Oc2ccccc2)Oc2ccccc2)cc1 (stereo not given) < 5.00

# query: pIC50 of entry Nc1ccc(CC(NC(=O)OCc2ccccc2)P(=O)(Oc2ccccc2)Oc2ccccc2)cc1 (stereo not given) < 5.00

* * *

# TARGET_OR_TEST_SYSTEM: Kallikrein-1 (Homo sapiens)
# Sequence (P06870 whole entry): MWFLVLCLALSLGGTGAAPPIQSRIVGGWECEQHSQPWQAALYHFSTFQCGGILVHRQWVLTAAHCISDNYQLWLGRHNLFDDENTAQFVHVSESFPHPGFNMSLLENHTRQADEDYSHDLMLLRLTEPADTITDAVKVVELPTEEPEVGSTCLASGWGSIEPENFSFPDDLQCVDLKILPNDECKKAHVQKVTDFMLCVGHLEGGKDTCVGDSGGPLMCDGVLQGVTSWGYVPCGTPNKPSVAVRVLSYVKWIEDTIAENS
# METHOD_NOTES: Inhibition of human recombinant KLK1 expressed in Escherichia coli using Bachem I-1295 as substrate preincubated for 15 mins followed by substrate addition by microplate reader analysis
I'd appreciate it if you could supply IC50 values for the items below.

# query: IC50 of entry N=C(N)Nc1ccc(CC(NC(=O)OCc2ccccc2)P(=O)(Oc2ccccc2)Oc2ccccc2)cc1 (stereo not drawn) > 10000 nM

# query: IC50 of entry N=C(N)c1ccc(C(NC(=O)OCc2ccccc2)P(=O)(Oc2ccccc2)Oc2ccccc2)cc1 (stereo not drawn) > 2500 nM

# query: IC50 of entry "N=C(N)Nc1ccc(CCP(=O)(Oc2ccccc2)Oc2ccccc2)cc1" > 2500 nM

* * *

# TARGET_OR_TEST_SYSTEM: Plasminogen (Homo sapiens, UniProt P00747)
# Sequence (P00747 97-580 limits assumed): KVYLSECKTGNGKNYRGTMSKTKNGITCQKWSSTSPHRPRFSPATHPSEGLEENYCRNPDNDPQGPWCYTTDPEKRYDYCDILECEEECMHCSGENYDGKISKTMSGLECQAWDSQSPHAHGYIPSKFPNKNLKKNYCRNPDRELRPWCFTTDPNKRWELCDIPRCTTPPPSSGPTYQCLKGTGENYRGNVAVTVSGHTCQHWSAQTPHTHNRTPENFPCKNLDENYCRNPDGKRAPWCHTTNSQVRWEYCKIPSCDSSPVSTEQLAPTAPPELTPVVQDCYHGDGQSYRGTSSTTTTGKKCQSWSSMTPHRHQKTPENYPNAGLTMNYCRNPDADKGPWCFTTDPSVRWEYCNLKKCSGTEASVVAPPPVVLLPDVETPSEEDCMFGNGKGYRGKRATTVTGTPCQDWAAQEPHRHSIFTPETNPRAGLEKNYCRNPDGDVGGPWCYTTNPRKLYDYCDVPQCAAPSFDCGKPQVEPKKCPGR
# Sequence (P00747 581-810 limits assumed): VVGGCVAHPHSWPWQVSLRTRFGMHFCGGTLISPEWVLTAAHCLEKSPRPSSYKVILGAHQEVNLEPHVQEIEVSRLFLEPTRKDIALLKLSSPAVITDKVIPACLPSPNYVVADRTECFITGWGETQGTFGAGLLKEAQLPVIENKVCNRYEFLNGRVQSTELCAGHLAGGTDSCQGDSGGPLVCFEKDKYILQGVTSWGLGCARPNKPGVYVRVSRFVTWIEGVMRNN
# METHOD_NOTES: Inhibition of human plasma plasmin using Biophen CS-21(66) as substrate
pIC50: −log10 of the molar value.
I'd appreciate it if you could supply pIC50 values for the items below.

# query: pIC50 of entry "N=C(N)Nc1ccc(CCP(=O)(Oc2ccccc2)Oc2ccccc2)cc1" < 5.00

# query: pIC50 of entry N=C(N)c1ccc(C(NC(=O)OCc2ccccc2)P(=O)(Oc2ccccc2)Oc2ccccc2)cc1 (stereo not drawn) < 5.60

# query: pIC50 of entry Nc1ccc(C(NC(=O)OCc2ccccc2)P(=O)(Oc2ccccc2)Oc2ccccc2)cc1 (stereo not drawn) < 5.00

* * *

I'd appreciate it if you could supply pIC50 values for the items below.
# TARGET_OR_TEST_SYSTEM: Prothrombin (Homo sapiens, UniProt P00734)
# METHOD_NOTES: Inhibition of human plasma thrombin using Biophen CS-21(66) as substrate preincubated for 15 mins followed by substrate addition by microplate reader analysis
pIC50: −log10 of the molar value.

# query: pIC50 of entry Nc1ccc(C(NC(=O)OCc2ccccc2)P(=O)(Oc2ccccc2)Oc2ccccc2)cc1 (stereo not given) < 5.00

# query: pIC50 of entry "N=C(N)Nc1ccc(CP(=O)(Oc2ccccc2)Oc2ccccc2)cc1" < 5.00

# query: pIC50 of entry NCCCC(NC(=O)OCc1ccccc1)P(=O)(Oc1ccccc1)Oc1ccccc1 (stereo not given) < 5.60

# query: pIC50 of entry O=C(NC(c1ccc(O)cc1)P(=O)(Oc1ccccc1)Oc1ccccc1)OCc1ccccc1 (stereo not given) < 5.00

# query: pIC50 of entry "N=C(N)Nc1ccc(CCP(=O)(Oc2ccccc2)Oc2ccccc2)cc1" < 5.00
